[
  {
    "ITEM SMILES": "CCOc1c(Cl)cc2c(c1Cl)B(O)OC2",
    "melting point": "109 to 111 °C"
  },
  {
    "ITEM SMILES": "OB1OCc2cc3c(cc21)OC(F)(F)O3",
    "melting point": "147 to 149 °C"
  },
  {
    "ITEM SMILES": "OB1OCc2cc(Cl)c(O)c(Cl)c21",
    "melting point": "174 to 176 °C"
  },
  {
    "ITEM SMILES": "CCOc1cc2c(cc1C)COB2O",
    "melting point": "97 to 100 °C"
  },
  {
    "ITEM SMILES": "COc1cc(Cl)cc2c1B(O)OC2",
    "melting point": "146 to 148 °C"
  },
  {
    "ITEM SMILES": "OB1OCc2cc(Cl)c(O)cc21",
    "melting point": "194 to 195 °C"
  },
  {
    "ITEM SMILES": "CCOc1cc2c(cc1Cl)COB2O",
    "melting point": "146 to 148 °C"
  }
]
